- PROTOCOL_DETAILS: Displacement of [3H]Idazoxan from central-type imidazole receptor 2 imidazoline binding site in Wistar rat cerebral cortex after 30 mins
- Type: tissue-based
MEASURED_PROPERTY: IC50
Provide a numeric answer, followed by its unit.

What value of IC50 has been recorded for this entry: c1ccc2c(c1)OCC(C1=NCCN1)O2 (stereo unspecified) [IDAZOXAN]
12 nM

---

- PROTOCOL_DETAILS: Selectivity ratio of EC50 for human HMLE cells expressing shRNA and GFP to EC50 for human CSC-like HMLE cells expressing shRNA and epithelial cadherin
- Assay type: ADME, cell-based
- EXPERIMENTAL_CONDITIONS: read-out: Ratio EC50
Label rule, in plain words: selectivity ratio of 5 and up is true (1), under 5 is false (0).

Consider the following illustrative entries.
INSERT INTO measurements (smiles_repr, label_value) VALUES
  ('O=C(/C=C/c1ccc(-c2ccccc2)cc1)NC1=NCCS1', 'true (1)'),
  ('CCc1ccc(/C=C/C(=O)NC2=NCCS2)cc1', 'true (1)'),
  ('O=C(/C=C/c1ccc(-c2cccnc2)cc1)NC1=NCCS1', 'false (0)');

Quick check, selectivity ratio >= 5? `CC(C)Cc1ccc(/C=C/C(=O)NC2=NCCS2)cc1`
false (0)

Evaluate `O=C(/C=C/c1cccc(Cl)c1)NC1=NCCS1` : selectivity ratio at minimum 5?
false (0)

Given `O=C(/C=C/c1ccc(Cl)cc1)NC1=NCCS1` , state whether its selectivity ratio is at least 5.
false (0)
